# study_target: human cloned CHRM2 receptor (M2_CHO cells) (Homo sapiens, UniProt P08172)
# Construct: expressed in transfected cells; host or cells: CHO-K1
# Sequence (P08172 whole entry): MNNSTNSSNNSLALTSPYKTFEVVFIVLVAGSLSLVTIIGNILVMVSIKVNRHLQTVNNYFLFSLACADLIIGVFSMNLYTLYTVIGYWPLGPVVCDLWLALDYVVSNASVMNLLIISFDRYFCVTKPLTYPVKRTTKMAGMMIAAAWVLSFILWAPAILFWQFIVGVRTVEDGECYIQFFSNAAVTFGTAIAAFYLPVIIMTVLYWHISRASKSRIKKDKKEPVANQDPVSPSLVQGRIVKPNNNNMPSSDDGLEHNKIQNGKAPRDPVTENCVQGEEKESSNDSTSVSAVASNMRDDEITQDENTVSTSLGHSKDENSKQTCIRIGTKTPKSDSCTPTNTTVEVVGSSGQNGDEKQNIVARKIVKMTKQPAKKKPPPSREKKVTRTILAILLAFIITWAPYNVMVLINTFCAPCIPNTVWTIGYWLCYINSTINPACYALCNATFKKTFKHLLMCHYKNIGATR
# assay_notes: CHRM2 Ca++ Flux Assay (agonist mode, FDSS 7000EX)
# Format: cell-based
# measurement_parameters: Percent Activity measured to EC100 of Carbachol
experimental_endpoint: M2 FDSS PA (%)

Here is how some molecules turned out for M2 FDSS PA.
>  <molecule>
O=C(N1CC2(CC[C@@H](N3CCC(c4cc(F)ccc4OC4CCOCC4)CC3)C2)C1)C1(F)CC1 (single isomer, unassigned) [Example 9D]

>  <M2 FDSS PA (%)>
0

$$$$
>  <molecule>
Cc1ncc(COc2ccccc2C2CCN([C@@H]3CCC4(C3)CN(C(=O)C3(F)CC3)C4)CC2)o1 (single isomer, unassigned)

>  <M2 FDSS PA (%)>
0

$$$$
>  <molecule>
FC(F)(F)Oc1ccccc1C1CCN([C@@H]2CCC3(C2)CN(c2ncco2)C3)CC1 (single isomer, unassigned) [Example 10K]

>  <M2 FDSS PA (%)>
0

$$$$

A. O=C(N1CC2(CC[C@@H](N3CCC(c4cc(F)ccc4OC4CC5(COC5)C4)CC3)C2)C1)C1(F)CC1 (single isomer, unassigned) [Example 11A]
B. O=C(N1CC2(CC[C@@H](N3CCC(c4ccccc4OCC4CC4)CC3)C2)C1)C1(F)CC1 (single isomer, unassigned) [Example 7T]
In: M2 FDSS PA comparison. Which is larger, A or B ? Use the label to indicate which entry you chose.
Out: B

* * *

# study_target: human cloned CHRM4 receptor (M4_CHO cells) (Homo sapiens)
# Construct: expressed in transfected cells; host or cells: CHO-K1
# Sequence (P08173 whole entry): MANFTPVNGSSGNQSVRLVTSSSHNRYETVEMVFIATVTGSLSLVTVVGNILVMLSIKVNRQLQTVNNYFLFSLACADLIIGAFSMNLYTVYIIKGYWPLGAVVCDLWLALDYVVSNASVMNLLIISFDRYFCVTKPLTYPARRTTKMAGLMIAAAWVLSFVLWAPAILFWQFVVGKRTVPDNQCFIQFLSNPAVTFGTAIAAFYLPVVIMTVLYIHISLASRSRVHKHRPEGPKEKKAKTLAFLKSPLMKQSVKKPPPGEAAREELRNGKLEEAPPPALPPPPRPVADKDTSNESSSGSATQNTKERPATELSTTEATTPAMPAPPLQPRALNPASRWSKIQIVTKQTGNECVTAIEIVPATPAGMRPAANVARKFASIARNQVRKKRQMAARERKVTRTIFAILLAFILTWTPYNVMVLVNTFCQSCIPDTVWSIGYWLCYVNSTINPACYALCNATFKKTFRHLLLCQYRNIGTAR
# assay_notes: CHRM4 Ca++ Flux Assay (agonist mode, FDSS 7000EX)
# Type: cell-based
# measurement_parameters: geometric mean if tested more than once, read-out: M4 FDSS EC50
experimental_endpoint: EC50 (nM)

Example cases with answers are listed next.
>  <compound>
CC(C)(O)COc1ccccc1C1CCN([C@@H]2CCC3(C2)CN(c2ncns2)C3)CC1

>  <EC50, nM>
5

$$$$
>  <compound>
N#CCCOc1ccccc1C1CCN([C@@H]2CCC3(C2)CN(C(=O)C2COC2)C3)CC1

>  <EC50, nM>
2

$$$$
>  <compound>
COc1ccccc1C1CCN([C@H]2CCC3(C2)CN(c2ncco2)C3)CC1 (single isomer, unassigned) [Example 10I]

>  <EC50, nM>
1070

$$$$

I. O=C(N1CC2(CC[C@@H](N3CCC(c4ccccc4C4(O)CCOCC4)CC3)C2)C1)C1(F)CC1 (single isomer, unassigned) [Example 9G]
II. c1ccc(C2CCOC2)c(C2CCN([C@@H]3CCC4(C3)CN(c3nnco3)C4)CC2)c1 (stereo partly shown)
III. O[C@H]1CC[C@@H](c2ccccc2C2CCN([C@@H]3CCC4(C3)CN(c3nnco3)C4)CC2)CC1 (single isomer, unassigned)
In: Order the 3 compounds from highest to lowest EC50. In plain terms: list the labels in the order you were asked to.
Out: I, II, III

P. CC(C)Oc1ccccc1C1CCN([C@@H]2CCC3(C2)CN(C(=O)C2COC2)C3)CC1
Q. CC(C)(O)COc1ccccc1C1CCN([C@@H]2CCC3(C2)CN(c2ncncn2)C3)CC1
R. O=C(C1COC1)N1CC2(CC[C@@H](N3CCC(c4ccccc4OC[C@@H]4CCOC4)CC3)C2)C1
S. Fc1ccc(OC2CC3(COC3)C2)c(C2CCN([C@@H]3CCC4(C3)CN(c3cncnc3)C4)CC2)c1 (single isomer, unassigned) [Example 10F]
In: Order each entry by recorded EC50, climbing from the minimum. Enter labels, ranked according to the request.
Out: R, S, P, Q

P. COc1ccccc1C1CCN([C@@H]2CCC3(C2)CN(c2cccnc2)C3)CC1
Q. Fc1ccc(OC2CC3(COC3)C2)c(C2CCN([C@@H]3CCC4(C3)CN(c3cncnc3)C4)CC2)c1 (single isomer, unassigned) [Example 10E]
R. O=C(N1CC2(CC[C@@H](N3CCC(c4cc(F)ccc4OC4CCOCC4)CC3)C2)C1)C1(F)CC1 (single isomer, unassigned) [Example 9D]
S. CC(C)(F)COc1ccccc1C1CCN([C@@H]2CCC3(C2)CN(C(=O)C2COC2)C3)CC1
In: # ascending order, key=EC50 Respond with an ordered listing of the labels, as requested.
Out: S, P, Q, R
(S: 4 nM, P: 9 nM, Q: 27 nM, R: 75 nM)

a. COc1ccc(F)cc1C1CCN([C@@H]2CCC3(C2)CN(c2ccnnc2)C3)CC1
b. COCCOc1ccccc1C1CCN([C@@H]2CCC3(C2)CN(c2ccnnc2)C3)CC1
c. O=C(N1CC2(CC[C@@H](N3CCC(c4ccccc4OCCO)CC3)C2)C1)C1(F)CC1 (single isomer, unassigned)
d. Cc1ccc(N2CC3(CC[C@@H](N4CCC(c5ccccc5O[C@@H]5CCOC5)CC4)C3)C2)cn1
In: Order the records so the highest EC50 appears first and the lowest last. Response format: the labels, sorted as the prompt asks.
Out: b, d, a, c

P. O=C(N1CC2(CC[C@@H](N3CCC(c4cc(F)ccc4C4(O)CCOCC4)CC3)C2)C1)C1(F)CC1 (single isomer, unassigned) [Example 9I]
Q. COc1ccccc1C1CCN([C@@H]2CCC3(C2)CN(c2cnc(C)cn2)C3)CC1
In: Select the item whose EC50 value is smaller, choosing between P and Q . API: response body contains the label of the selected item.
Out: P

* * *

# study_target: Cloned human M1 receptor (CHRM1) stably expressed in HEK293 cells (Homo sapiens, UniProt P11229)
# Construct: expressed in transfected cells; host or cells: HEK293
# Sequence (P11229 whole entry): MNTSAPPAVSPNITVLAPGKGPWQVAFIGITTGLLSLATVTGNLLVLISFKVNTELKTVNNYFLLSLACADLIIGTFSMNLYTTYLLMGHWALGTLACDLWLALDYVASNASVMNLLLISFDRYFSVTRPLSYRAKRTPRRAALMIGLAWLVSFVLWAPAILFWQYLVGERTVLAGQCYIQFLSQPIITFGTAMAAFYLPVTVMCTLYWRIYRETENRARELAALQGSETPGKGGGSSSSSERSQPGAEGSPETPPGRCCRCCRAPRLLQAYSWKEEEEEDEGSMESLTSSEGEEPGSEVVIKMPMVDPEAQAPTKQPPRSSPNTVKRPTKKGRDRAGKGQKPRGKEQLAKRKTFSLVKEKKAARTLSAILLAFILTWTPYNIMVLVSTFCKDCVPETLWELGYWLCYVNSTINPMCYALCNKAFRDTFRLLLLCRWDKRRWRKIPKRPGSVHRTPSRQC
# assay_notes: CHRM1 Ca++ Flux Assay (agonist mode, FDSS 7000EX)
# Assay type: cell-based
# measurement_parameters: Percent Activity
experimental_endpoint: M1 FDSS PA (%)

>  <compound>
FC(F)(F)Oc1ccccc1C1CCN([C@@H]2CCC3(C2)CN(c2ncco2)C3)CC1 (single isomer, unassigned) [Example 10K]

>  <result_unit>
%

>  <M1 FDSS PA>
65

$$$$
>  <compound>
FC(F)(F)Oc1ccccc1C1CCN([C@@H]2CCC3(C2)CN(c2nncs2)C3)CC1 (single isomer, unassigned) [Example 10M]

>  <result_unit>
%

>  <M1 FDSS PA>
77

$$$$
>  <compound>
OC1CCC(c2ccccc2C2CCN([C@@H]3CCC4(C3)CN(c3nnco3)C4)CC2)CC1 (single isomer, unassigned) [Example 2O]

>  <result_unit>
%

>  <M1 FDSS PA>
77

$$$$
>  <compound>
O=C1CCCN1CCOc1ccccc1C1CCN([C@@H]2CCC3(C2)CN(C(=O)C2(F)CC2)C3)CC1.O=CO (single isomer, unassigned) [Example 7P]

>  <result_unit>
%

>  <M1 FDSS PA>
46

$$$$
>  <compound>
FC(F)(F)Oc1ccccc1C1CCN([C@@H]2CCC3(C2)CN(c2nncs2)C3)CC1 (single isomer, unassigned) [Example 10N]

>  <result_unit>
%

>  <M1 FDSS PA>
0

$$$$

P. Fc1ccc(OC2CCOCC2)c(C2CCN([C@@H]3CCC4(C3)CN(c3cncnc3)C4)CC2)c1 (single isomer, unassigned) [Example 10G]
Q. Fc1ccc(OC2CCOCC2)c(C2CCN([C@@H]3CCC4(C3)CN(c3cncnc3)C4)CC2)c1 (single isomer, unassigned) [Example 10H]
In: Which record would sort first by descending M1 FDSS PA, P or Q ? Identify your selection by its label.
Out: P
(P: 64%, Q: 36%)

P. O=C(N1CC2(CC[C@@H](N3CCC(c4ccccc4OC(F)(F)F)CC3)C2)C1)C1(F)CC1 (single isomer, unassigned) [Example 9B]
Q. O=C(N1CC2(CC[C@@H](N3CCC(c4ccccc4OCc4ncccn4)CC3)C2)C1)C1(F)CC1 (single isomer, unassigned) [Example 7M]
In: Just tell me: smaller M1 FDSS PA value, P or Q ? Please indicate the selected item by its label.
Out: P
(P: 55%, Q: 84%)

1. Cc1ncc(COc2ccccc2C2CCN([C@@H]3CCC4(C3)CN(C(=O)C3(F)CC3)C4)CC2)o1 (single isomer, unassigned) [Example 7V]
2. O=C(N1CC2(CC[C@@H](N3CCC(c4cc(F)ccc4C4CCOCC4)CC3)C2)C1)C1(F)CC1 (single isomer, unassigned) [Example 9K]
In: Lab notebook, comparison: 1 versus 2 , higher M1 FDSS PA goes to which? Indicate your choice by writing its label.
Out: 2

1. O=C(N1CC2(CC[C@@H](N3CCC(c4ccccc4OC4CCOCC4)CC3)C2)C1)C1(F)CC1 (single isomer, unassigned) [Example 9E]
2. Cc1nnc(COc2ccccc2C2CCN([C@@H]3CCC4(C3)CN(C(=O)C3(F)CC3)C4)CC2)o1 (single isomer, unassigned) [Example 7Y]
In: Returns: the label, 1 or 2 , whose recorded M1 FDSS PA is the lower number. Respond with the label that goes with your answer.
Out: 1
(1: 34%, 2: 67%)

a. O=C(N1CC2(CC[C@@H](N3CCC(c4ccccc4OCC4CC4)CC3)C2)C1)C1(F)CC1 (single isomer, unassigned) [Example 7O]
b. O=C(N1CC2(CC[C@@H](N3CCC(c4ccccc4OC4CC5(COC5)C4)CC3)C2)C1)C1(F)CC1 (single isomer, unassigned) [Example 11C]
In: Of a and b , whose reported M1 FDSS PA is numerically smaller? The response must carry the label of the picked entry.
Out: b

Where do the numbers come from? From patent US12122761B2.
